- study_target: T1, human GFRAL (analyte in Biacore assays) (human, UniProt Q6UXV0 19-351, limits assumed)
- T1 construct: injected in solution over captured antibody; also called hGFRAL
- T1 sequence: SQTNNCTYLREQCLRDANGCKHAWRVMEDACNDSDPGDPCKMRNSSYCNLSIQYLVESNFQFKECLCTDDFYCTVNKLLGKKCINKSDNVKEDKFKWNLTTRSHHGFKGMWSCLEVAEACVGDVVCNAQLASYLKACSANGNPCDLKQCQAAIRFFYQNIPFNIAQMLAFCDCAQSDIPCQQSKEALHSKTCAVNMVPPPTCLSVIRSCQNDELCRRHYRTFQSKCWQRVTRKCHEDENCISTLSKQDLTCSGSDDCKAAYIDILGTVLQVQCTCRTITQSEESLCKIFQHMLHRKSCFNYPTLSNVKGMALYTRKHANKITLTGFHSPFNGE
- experimental_protocol: Biacore SPR, antibody captured, human GFRAL injected
So I've got a bunch of binders here, and I need their Kd values.
Write it as a number; the unit nM goes unstated.

Inquiry: Return reported Kd; argument: humanized anti-GFRAL antibody HC-375d/LC-375a (antibody, V domains shown, humanized 5F12) VH: QVQLVQSGAEVKKPGSSVKVSCKASGYTFTDYYINWVRQAPGQGLEWIGRIYPGNGNTYHNEKFKGRATLTADKSTSTAYMELSSLRSEDTAVYYCAREGLYYDYDRYFDYWGQGTLVTVSS VL: DIVMTQSPDSLAVSLGERATINCRASESVDTYGNSFMHWYQQKPGQPPKLLIYLASNLESGVPDRFSGSGSGTDFTLTISSLQAEDVAVYYCHQNNEDPPAFGGGTKVEIK
Reply text: 0.074

Inquiry: Return reported Kd; argument: humanized anti-GFRAL antibody HC-375d/LC-375j (antibody, IgG1, V domains shown, humanized 5F12) VH: QVQLVQSGAEVKKPGSSVKVSCKASGYTFTDYYINWVRQAPGQGLEWIGRIYPGNGNTYHNEKFKGRATLTADKSTSTAYMELSSLRSEDTAVYYCAREGLYYDYDRYFDYWGQGTLVTVSS VL: DIVLTQSPLSLPVTLGQPASISCRASESVDTYGNSFMHWYQQRPGQSPRLLIYLASNLESGVPDRFSGSGSRTDFTLKISRVEAEDVGVYYCHQNNEDPPAFGGGTKVEIK
Reply text: 0.046

Inquiry: Return reported Kd; argument: humanized anti-GFRAL antibody HC-375e/LC-375c (antibody, IgG1, V domains shown, humanized 5F12) VH: QVQLVQSGAEVKKPGSSVKVSCKASGYTFTDYYINWVRQAPGQGLEWMGRIYPGNGNTYHNEKFKGRATLTADESTSTAYMELSSLRSEDTAVYYCAREGLYYDYDRYFDYWGQGTLVTVSS VL: DIQMTQSPSSLSASVGDRVTITCRASESVDTYGNSFMHWYQQKPGKAPKLLIYLASNLESGVPSRFSGSGSGTDFTLTISSLQPEDFATYYCHQNNEDPPAFGGGTKVEIK
Reply text: 0.092
